- Measurement Notes: Pharmacokinetic study (PK) after single i.v. and i.p. administration
- Type: in vivo, male CD-1 mice
- Cond: male, CD-1, mouse, in vivo, iv, 2 mg/kg
- Protocol: 2.9. Pharmacokinetic Study (PK) 30 grams (±20%) male CD-1 mice obtained from Charles River Laboratories Deutschland GmbH were used in the study. The vehicle, physiological saline, was added to give a final concentration of 1 mg/ml of the compounds. […] PK analysis was performed on pooled data (generally n=2 or 3) using the software PK solutions 2.0™ (Summit Research Service, Montrose, Colo. 81401 USA). The area under the curve AUC was calculated by the linear trapezoidal rule. […]
Outcome Measure: level at 0.083 h

level at 0.083 h reading for N=C(N)NCCC[C@@H]1NC(=O)[C@@H]2CSSC[C@H](NC(=O)[C@H](Cc3ccc4ccccc4c3)NC(=O)[C@H](CCCNC(=N)N)NC(=O)[C@H](CCCNC(=N)N)NC(=O)[C@H]3CCCN3C(=O)CNC1=O)C(=O)N[C@@H](Cc1ccc(O)cc1)C(=O)N[C@@H](CCCNC(N)=O)C(=O)N[C@@H](CCCCN)C(=O)N1CCC[C@@H]1C(=O)N1CCC[C@H]1C(=O)N[C@@H](Cc1ccc(O)cc1)C(=O)N[C@@H](CCCNC(=N)N)C(=O)N[C@@H](CCCNC(N)=O)C(=O)N2 : 1460 ng/mL
